system: Pro-neuregulin-1, membrane-bound isoform (Homo sapiens)
assayProcedure: small molecules binding neuregulin-1 protein – biochemical, small-molecule microarray, fluorescence 635/667, psychiatric disease protein project, primary screen (AID 1075);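 further: score combines 667 nm spot fluorescence with signal to noise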
particulars: NRG1 binding, 635 nm fluorescence, higher = more signal
readoutType: composite z-score
One number for each entry.

Example entries and their recorded answers appear below.
C=C[C@@H](C)[C@@H](OC(=O)Nc1ccc(OC)cc1)c1ccc(O)c2ccccc12
0.543
O=C(NCC(O)CO)[C@@]1(Cc2ccccc2)COC(c2ccc(OCCCO)cc2)=N1 (stereo partly specified)
0.736
Cc1ccc(S[C@]2(C(=O)NCCN3CCOCC3)CC(=O)N(C3CCCCC3)[C@@H]2c2ccc(CO)cc2)cc1
1
CC(C)(C)OC(=O)CC[C@@]1(C(=O)NCC(O)CO)N=C(c2ccc(OCCCO)cc2)O[C@@H]1c1ccccc1 (stereo partly specified)
1.8
O=C1c2ccccc2[C@](Cc2ccccc2I)(C(=O)O)[C@H](c2ccc(CO)cc2)N1Cc1ccccc1C(F)(F)F
1.62

# input for lookup
Need composite z-score, item O=C1C2C=CC(C(O)c3ccc(Br)cc3)N(n3cnnc3)C2C(=O)N1Cc1ccccc1 (stereo unspecified)
0.0603

---

system: Neurogenic locus notch homolog protein 2 (Homo sapiens) (UniProt Q04721)
Sequence (Q04721 whole entry, looked up): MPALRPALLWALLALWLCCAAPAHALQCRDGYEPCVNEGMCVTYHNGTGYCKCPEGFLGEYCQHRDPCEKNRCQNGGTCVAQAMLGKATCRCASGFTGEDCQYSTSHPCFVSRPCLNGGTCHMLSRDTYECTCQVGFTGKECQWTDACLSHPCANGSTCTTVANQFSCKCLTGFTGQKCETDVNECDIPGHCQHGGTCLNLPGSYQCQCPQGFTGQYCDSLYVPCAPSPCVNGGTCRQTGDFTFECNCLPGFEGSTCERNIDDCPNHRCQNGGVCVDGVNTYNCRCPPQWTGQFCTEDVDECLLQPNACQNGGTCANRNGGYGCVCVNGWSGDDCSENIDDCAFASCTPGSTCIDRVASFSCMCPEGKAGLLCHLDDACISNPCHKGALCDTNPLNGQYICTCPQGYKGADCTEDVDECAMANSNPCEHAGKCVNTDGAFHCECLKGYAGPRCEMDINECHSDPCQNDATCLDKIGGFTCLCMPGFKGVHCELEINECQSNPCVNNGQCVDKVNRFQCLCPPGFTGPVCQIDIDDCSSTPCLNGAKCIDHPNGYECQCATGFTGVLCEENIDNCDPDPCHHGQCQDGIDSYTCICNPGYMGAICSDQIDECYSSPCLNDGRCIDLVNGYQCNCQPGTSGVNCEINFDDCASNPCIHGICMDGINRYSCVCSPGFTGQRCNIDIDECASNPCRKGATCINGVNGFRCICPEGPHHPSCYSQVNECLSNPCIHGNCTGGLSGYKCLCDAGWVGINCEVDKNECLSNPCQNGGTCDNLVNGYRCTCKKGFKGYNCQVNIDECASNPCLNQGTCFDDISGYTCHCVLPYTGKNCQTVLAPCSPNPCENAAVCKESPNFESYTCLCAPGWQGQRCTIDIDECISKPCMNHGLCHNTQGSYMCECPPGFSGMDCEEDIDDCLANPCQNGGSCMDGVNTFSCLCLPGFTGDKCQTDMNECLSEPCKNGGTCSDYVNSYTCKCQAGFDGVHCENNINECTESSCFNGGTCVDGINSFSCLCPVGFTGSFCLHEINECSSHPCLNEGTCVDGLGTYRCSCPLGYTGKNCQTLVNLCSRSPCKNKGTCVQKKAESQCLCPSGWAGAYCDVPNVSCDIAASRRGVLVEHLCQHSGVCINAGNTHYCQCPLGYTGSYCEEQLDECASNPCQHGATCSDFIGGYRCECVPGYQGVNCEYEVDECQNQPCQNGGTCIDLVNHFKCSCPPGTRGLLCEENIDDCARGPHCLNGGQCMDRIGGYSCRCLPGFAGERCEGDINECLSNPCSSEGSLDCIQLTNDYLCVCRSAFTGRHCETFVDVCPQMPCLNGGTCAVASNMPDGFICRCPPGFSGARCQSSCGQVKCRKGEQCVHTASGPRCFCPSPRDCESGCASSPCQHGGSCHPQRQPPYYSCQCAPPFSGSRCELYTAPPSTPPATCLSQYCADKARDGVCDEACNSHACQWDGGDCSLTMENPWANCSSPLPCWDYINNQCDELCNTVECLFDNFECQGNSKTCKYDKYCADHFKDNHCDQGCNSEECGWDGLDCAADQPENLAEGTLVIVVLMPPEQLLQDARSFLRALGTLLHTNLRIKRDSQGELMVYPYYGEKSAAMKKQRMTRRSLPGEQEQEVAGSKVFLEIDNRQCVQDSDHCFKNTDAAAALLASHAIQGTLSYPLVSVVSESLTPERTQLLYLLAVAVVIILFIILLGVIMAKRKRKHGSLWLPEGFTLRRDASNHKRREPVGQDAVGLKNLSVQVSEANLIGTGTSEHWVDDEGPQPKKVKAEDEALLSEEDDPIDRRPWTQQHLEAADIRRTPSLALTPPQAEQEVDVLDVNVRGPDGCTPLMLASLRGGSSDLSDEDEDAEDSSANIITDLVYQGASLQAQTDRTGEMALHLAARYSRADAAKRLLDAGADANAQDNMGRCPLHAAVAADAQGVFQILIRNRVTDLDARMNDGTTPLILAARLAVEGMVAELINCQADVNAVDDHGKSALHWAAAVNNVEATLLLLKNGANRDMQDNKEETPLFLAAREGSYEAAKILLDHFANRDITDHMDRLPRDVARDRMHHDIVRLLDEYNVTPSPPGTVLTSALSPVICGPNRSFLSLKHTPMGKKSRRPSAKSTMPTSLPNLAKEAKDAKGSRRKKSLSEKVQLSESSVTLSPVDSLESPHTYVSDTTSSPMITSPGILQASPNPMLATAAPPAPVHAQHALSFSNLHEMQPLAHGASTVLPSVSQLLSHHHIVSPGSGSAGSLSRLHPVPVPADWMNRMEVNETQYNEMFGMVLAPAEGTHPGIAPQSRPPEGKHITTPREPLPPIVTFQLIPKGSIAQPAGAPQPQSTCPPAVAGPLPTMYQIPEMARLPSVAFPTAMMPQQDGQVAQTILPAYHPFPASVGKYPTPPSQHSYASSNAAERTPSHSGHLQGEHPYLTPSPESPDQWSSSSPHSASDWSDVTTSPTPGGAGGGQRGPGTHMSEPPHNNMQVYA
assayProcedure: small molecules binding Notch2 protein – biochemical, small-molecule microarray, 635 nm fluorescence, stem cell growth factors, primary screen (AID 1073)
particulars: higher = more signal
readoutType: composite z-score
Answers are plain numbers.

// worked examples, composite z-score included
CCOC(=O)N1C(c2ccc(OCCCO)cc2)=NC(C(=O)OC)N1C(=O)OCC (stereo not given)
1.17
C[N+](C)(C)CCCC[C@@H]1NC(=O)[C@H]2C[C@@H](C(=O)O)[C@@H](c3cccc(OCCO)c3)N2C1=O
1.01
C=CCOC(=O)[C@@H]1[C@H]2C(=O)O[C@H](c3ccccc3)[C@H](c3ccccc3)N2[C@H](c2ccc(OCCOC(=O)[C@H]3C[C@H]4C(=O)N[C@@H](Cc5ccccc5)C(=O)N4[C@H]3c3ccc(O)cc3)cc2)[C@@]12C(=O)Nc1ccc(I)cc12
1.11
COC(=O)[C@@]1(Cc2ccc(OC)cc2)[C@H]2c3cc(C(=O)N4CCCC4)n(C[C@H](O)CO)c3C[C@H]2CN1C(=O)c1ccccc1
1.13

Report composite z-score for each item below.
1. CN(C)CCCCCCNC(=O)[C@@H]1C[C@@H]2C(=O)NCC(=O)N2[C@@H]1c1cccc(OCCO)c1
2. COc1ccc([Si](C)(C)[C@@H]2[C@@H](CCO)O[C@]3(C(=O)N(Cc4ccccc4)c4ccc(N(C=O)c5ccccc5)cc43)[C@H]2C)cc1
3. Cc1ccc(S[C@]2(C(=O)NCCN3CCOCC3)CC(=O)N(C3CCCCC3)[C@@H]2c2ccc(CO)cc2)cc1
4. [N-]=[N+]=Nc1ccccc1[C@@H]1OC(c2ccc(OCCCO)cc2)=N[C@]1(CCS(=O)(=O)c1ccccc1)C(=O)N1CCCCC1
5. COC(=O)[C@@]1(Cc2ccc(OC)cc2)[C@H]2c3cc(C(=O)N(C)C)n(Cc4ccc(OC)c(OC)c4)c3C[C@H]2CN1C(=O)c1ccccc1

1: 1.14; 2: 0.154; 3: 0.825; 4: 1.6; 5: 1.73

composite z-score lookup needed for "NC(=O)[C@]1(Cc2ccccc2)N=C(c2ccc(OCCCO)cc2)O[C@@H]1c1ccccc1" , thanks.
1.15
